method_notes: Clearance in Beagle dog at 1 mg/kg, iv
Assay type: ADME, organism-based, Canis lupus familiaris
Parameters: dose 1 mg/kg, route intravenous
measurement_setup: in vivo

{"columns": ["smiles", "clearance"],
 "data": [
  ["COc1ccc(-c2cc(C(C)(C)C)c(OC)c3cc(N4CC[C@H](CNS(C)(=O)=O)C4)cnc23)c(=O)[nH]1", "4.4 mL/min/kg"]
]}

* * *

method_notes: Clearance in Beagle dog at 0.86 mg/kg, iv
Format: ADME, organism-based, Canis lupus familiaris
Parameters: dose 0.86 mg/kg, route intravenous
measurement_setup: in vivo

{"columns": ["smiles", "clearance / mL/min/kg"],
 "data": [
  ["COc1ccc(-c2cc(C(C)(C)C)c(OC)c3cc(-c4ccc(NS(C)(=O)=O)cc4)cnc23)c(=O)[nH]1", 7.5]
]}
